Recorded melting point by entry

Completed entries (count: 4):
| molecule | melting point |
| --- | --- |
| O=C(NCCO)c1cccnc1 | 74 to 76 °C |
| COc1ccc(NC(=O)CCCl)cc1 | 120 to 122 °C |
| COc1ccc2c(O)ccnc2c1 | 213 to 215 °C |
| C#CCNS(=O)(=O)c1ccccc1 | 60 to 62 °C |

Reported melting point for NC(=O)Nc1ccc(Cl)c(N)c1 was 176 to 178 °C

For this molecule ( N#Cc1ccc(C2OCCO2)cc1 ), measured melting point is 45 to 47 °C

Reported melting point for CC1(CCc2ccccc2)NC(=O)N(N)C1=O (stereo unspecified) was < 17 °C

Per the record, CC1CCc2c(C(=O)O)csc2C1 (stereo unspecified) has melting point of 178 to 180 °C

Lookup result for O=C(O)c1ccc(=O)n(Cc2ccccc2)n1 ; measured melting point: 192 to 195 °C

Form: molecule = O=C(O)c1cn(-c2ccc(C(F)(F)F)cn2)nn1 ; melting point = 134 to 136 °C

In plain terms, Nc1ccc(S(=O)C(F)(F)F)cc1 (stereo unspecified) has a documented melting point of 76 to 78 °C

Consider NC1CC(=O)N(c2ccc(Oc3ccccc3)cc2)C1 (stereo unspecified) . Its measured melting point is 112 to 114 °C

Lab book: melting point of COc1ccc2c(c1)OCC(C=O)=C2 noted as 82 to 84 °C

Reported melting point for N#Cc1cccc(I)c1N was 115 to 117 °C

Looking up Nc1cccc(OCc2ccc(F)cc2)c1 , I found its melting point recorded as 87 to 89 °C

Briefly, melting point measured for Nc1ccc(Cc2nnn[nH]2)cc1 : 174 to 176 °C

Please fill in: melting point reported for O=c1[nH]c(-c2ccc(F)cc2)cs1 = 179 to 181 °C

Per the records, this molecule ( N#Cc1ccc2ocnc2c1 ) has melting point equal to 87 to 89 °C

// CCCOc1ccc(NS(C)(=O)=O)cc1 : melting point value = 118 to 120 °C

molecule CS(=O)(=O)NCc1ccccn1 , melting point observed: 88 to 90 °C

Per the records, this molecule ( CCC(=O)NC(C)C(=O)O (stereo unspecified) ) has melting point equal to 89 to 91 °C

Query CC(C)c1n[nH]c(C(=O)O)c1Br yields melting point of 195 to 197 °C

Given item CC(C)(C#N)NC(=O)c1ccccc1 , the value recorded as its melting point is 166 to 168 °C

====

The following compounds are listed with their measured melting point values.

| compound | recordedMetric | result |
| --- | --- | --- |
| CCn1c2ccccc2c2cc(/C=C/C(=O)O)ccc21 | melting point | 243 to 245 °C |
| O=C(c1cc(Cl)nc2ccccc12)N1CCOCC1 | melting point | 175 to 177 °C |
| CS(=O)(=O)Nc1ccc(C(=O)O)c(O)c1 | melting point | 227 to 229 °C |
| CCOC(=O)COc1ccc(Br)cc1F | melting point | 30 to 32 °C |
| O=C(O)c1ccc(Oc2ccc(C(F)(F)F)cn2)cc1 | melting point | 218 to 220 °C |
| Cn1cnnc1Sc1ccc(N)cc1Cl | melting point | 168 to 170 °C |

Query compound follows.
Reported melting point of OC(c1ccc(Cl)cc1)C1CCNCC1 (configuration not stated) : 139 to 141 °C

====

melting point values, listed per item

Known results for compounds:
| compound | melting point |
| --- | --- |
| O=C(NC1CCC(O)CC1)C(F)(F)F (stereo not given) | 186 to 188 °C |
| NC(=O)Nc1ccccc1[N+](=O)[O-] | 186 to 188 °C |
| CCc1noc(CC)c1CC(=O)O | 73 to 75 °C |
| Cc1csc(-c2ccc(N)cc2)n1 | 111 to 113 °C |

Continue with the compound presented below.
# compound O=C(O)c1[nH]nc(C2CC2)c1Cl ; its melting point = 231 to 233 °C

====

recordedMetric: melting point

| compound | recordedMetric | result |
| --- | --- | --- |
| OC(c1ccccc1)c1cccnc1 (stereo not given) | melting point | 59 to 61 °C |
| COc1ccc(-c2cc(C(=O)O)c3sc(N4CCCCC4)nc3n2)cc1OC | melting point | 284 to 286 °C |
| N#CC1(NC(=O)CCl)CCCCC1 | melting point | 130 to 132 °C |
| FC(F)(F)c1cc(Cl)nc(-c2ccncc2)n1 | melting point | 158 to 160 °C |
| Cc1nn(-c2ncccn2)c(N)c1Br | melting point | 159 to 161 °C |
| NC(C(=O)O)c1cc(F)ccc1F (stereo not given) | melting point | 229 to 231 °C |
| O=C(O)C=Cc1cn(-c2ccccc2)nc1-c1cccc([N+](=O)[O-])c1 | melting point | 248 to 250 °C |
| ClCc1cc2c(cc1Br)OCCCO2 | melting point | 75 to 77 °C |
| FC(F)c1nnc2ccc(Cl)nn12 | melting point | 101 to 103 °C |

Proceed to the following item.
melting point recorded for this compound, Oc1ccccc1CNC1CCCCC1 , is 61 to 63 °C

====

melting point by entry:

The recorded melting point for entry Cc1cc(S(N)(=O)=O)c(F)cc1F equals 97 to 99 °C

The molecule N#Cc1c(Cl)nc2ccccn12 showed melting point equal to 181 to 183 °C

Reported melting point for O=C(O)/C=C/c1ccc(OC(F)F)cc1OC(F)F was 106 to 108 °C

The recorded melting point for ON=C1CCC1 is 82 to 84 °C

Given item CNS(=O)(=O)c1ccc(C#N)cc1 , the value recorded as its melting point is 128 to 130 °C

====

Reported melting point values are given for each entry in this list.

Solved cases (5 shown):
| compound | melting point |
| --- | --- |
| CC(C)CNC(=O)CC#N | 57 to 59 °C |
| O=C(O)c1cccc2cccc(-c3cccc4cccc(C(=O)O)c34)c12 | 284 to 286 °C |
| O=C(NCc1ccc(F)cc1)C1CCNCC1 | 139 to 141 °C |
| O=Cc1c(OCC(=O)O)ccc2ccccc12 | 174 to 176 °C |
| COc1ccnc(N2CCC(C(=O)O)CC2)n1 | 131 to 133 °C |

The compound listed as O=C(O)C1CCN(c2ccc(F)cc2)C1=O (configuration not stated) shows melting point equal to 145 to 147 °C

get_value(item= O=C(O)c1nnn(-c2ccccc2F)c1C(F)(F)F , readout=melting point) returns 133 to 135 °C

// sample O=C(O)C1CC(O)CN1C(=O)C12CC3CC(CC(C3)C1)C2 (configuration not stated) , its melting point was 206 to 208 °C

====

Listed below: melting point values for each entry.

Example entries begin here.
| compound | recordedMetric | result |
| --- | --- | --- |
| CCCCOc1ccc(-c2cc(N)on2)cc1 | melting point | 112 to 114 °C |
| O=S(=O)(c1cccc(CCl)c1)N1CCOCC1 | melting point | 92 to 94 °C |
| O=C(O)CSc1nccn1-c1ccc(Br)cc1 | melting point | 203 to 205 °C |
| COC(=O)c1nnc2c(Cl)cccn12 | melting point | 52 to 55 °C |

get_value(item= Nc1ccc(S(=O)(=O)N2CCCC(C(=O)O)C2)cc1 (centres undefined) , readout=melting point) returns 195 to 197 °C

Lab book: melting point of CC1CN(c2ccc(C(=O)O)cn2)CC(C)O1 (centres undefined) noted as 219 to 221 °C

# melting point of O=C(CCl)Nc1cccc(S(=O)(=O)N2CCOCC2)c1 = 157 to 159 °C

====

recordedMetric: melting point

| compound | melting point |
| --- | --- |
| CC(C)Oc1ccc(CCC(=O)O)cc1 | 74 to 76 °C |
| CCOC(=O)c1oc2c(Br)cccc2c1C | 68 to 70 °C |
| N#Cc1cccc(CS(=O)(=O)NCC(=O)O)c1 | 158 to 160 °C |
| CC(NC(N)=O)C1CC2CCC1C2 (configuration not stated) | 167 to 169 °C |
| Sc1nc(-c2cccs2)c(-c2cccs2)[nH]1 | 293 to 295 °C |
| FC(F)(F)c1ccc2nnc(C3CCCNC3)n2c1 (configuration not stated) | 226 to 228 °C |
| NNC(=O)Nc1ccc(C(=O)O)cc1 | 192 to 194 °C |
| CC1CSc2ccccc2NC1=O (configuration not stated) | 178 to 180 °C |

Briefly, melting point measured for CN1CCC(N(C)c2ccc(N)cc2)CC1 : 62 to 64 °C

melting point reading for Fc1cc(CCl)c2c(c1)COC(c1ccsc1)O2 (configuration not stated) : 77 to 79 °C

Data point: O=C(O)C1(c2ccccc2Cl)CCOCC1 ; melting point = 201 to 203 °C

Cc1ccc(F)c(N)c1C(=O)O has a reported melting point of 114 to 116 °C

Value of measured melting point for the entry CC(C)(C(=O)O)C(O)c1ccc(OCc2ccccc2)cc1 (configuration not stated) : 167 to 169 °C

// recorded melting point for CCNC(=O)c1cccc(C#N)c1 : 99 to 101 °C

Hey, just so you know, these numbers are from a melting point compilation (Tetko et al.).
